All values here come from ChEMBL document CHEMBL5512645.

Test system: Erythrocyte
assayText: Hemolytic activity in mouse red blood cell assessed as hemolysis incubated for 1 hr
Format: toxicity, cell-based
Bridge positions count the residues as written; N and C are the ends. Square brackets hold non-standard residues; d marks the D form. Peptide text beside a SMILES is read from it. * marks the point of attachment. Lauroyl = CCCCCCCCCCCC(=O)*; dOrn = NCCC[C@@H](N)C(=O)O; Orn = NCCC[C@H](N)C(=O)O
Listed molecules paired with reported MHC

molecule	MHC
CCC(C)CCC(=O)N[C@H](CC(N)=O)C(=O)N[C@H](Cc1ccc(O)cc1)C(=O)N[C@H](Cc1c[nH]c2ccccc12)C(=O)N[C@H](C)C(=O)N[C@@H](CCCN)C(=O)NCC(=O)N[C@H](CCCN)C(=O)N[C@@H](Cc1c[nH]c2ccccc12)C(=O)N[C@@H]1C(=O)N[C@@H]([C@@H](C)CC)C(=O)NCC(=O)N[C@@H](CO)C(=O)O[C@@H]1C (mixture of isomers)	64 µM
CCC(C)CCC(=O)N[C@H](CC(N)=O)C(=O)N[C@H](C)C(=O)N[C@H](Cc1c[nH]c2ccccc12)C(=O)N[C@H](CCCN)C(=O)N[C@@H](CCCN)C(=O)NCC(=O)N[C@H](CCCN)C(=O)N[C@@H](Cc1c[nH]c2ccccc12)C(=O)N[C@@H]1C(=O)N[C@@H]([C@@H](C)CC)C(=O)NCC(=O)N[C@@H](CO)C(=O)O[C@@H]1C (mixture of isomers)	128 µM

Now look at this one.
**Query** Find MHC (Erythrocyte) for the entry CCCCCCCCCCCC(=O)N[C@H](CC(N)=O)C(=O)N[C@H](Cc1ccc(O)cc1)C(=O)N[C@H](Cc1c[nH]c2ccccc12)C(=O)N[C@H](CCCN)C(=O)N[C@@H](CCCN)C(=O)NCC(=O)N[C@H](CCCN)C(=O)N[C@@H](Cc1c[nH]c2ccccc12)C(=O)N[C@@H]1C(=O)N[C@@H]([C@@H](C)CC)C(=O)NCC(=O)N[C@@H](CO)C(=O)O[C@@H]1C (Lauroyl-[dN][dY][dW][dOrn][Orn]G[dOrn]WTIGS; ester 9-C)
**Result** 4 µM
